molecular target: T1, cynomolgus monkey OX40 protein (Novoprotein, #CB17) (cynomolgus monkey); assay: ELISA, coated cyno OX40 protein
T1 construct: Bought recombinant protein; also called cyno OX40
Below, each of the binders is paired with its reported Maximum OD value.
State the answer as a number, implicitly in OD.

binder	Maximum OD, OD
PR002061 (antibody, human IgG1, V domains shown, no light chain; also called anti-OX40 HCAb antibody) VH: EVQLLESGGGLVQPGGSLRLSCAASGFTFSSYAMSWVRQAPGKGLEWVSAISGRGGSTYYADSVRGRFTISRDNSKNTLYLQMNSLRAEDTAVYYCANGMTGTTDVDYWGQGTLVTVSS	1.87

// switching to the query binder
Which Maximum OD value is on record for PR002070 (antibody, human IgG1, V domains shown, no light chain; also called anti-OX40 HCAb antibody) VH: EVQLLESGGGLVQPGGSLRLSCIASGFSFSSYAMSWVRQAPGKGLEWVSAISGRGGSTFYADSVRGRFNISRDNSKNTLYLQMNSLRVEDTAVYYCANGMTGTTDVDYWGQGTLVTVSS ? 2.51
